# tested_target: CCKB receptor (Mus musculus, UniProt P56481)
# Construct: The whole brains from male mice (CD1 22-25 g; Charles River) were removed; from tissue; host or cells: cerebral cortex membranes of male CD1 mice
# Sequence (P56481 whole entry): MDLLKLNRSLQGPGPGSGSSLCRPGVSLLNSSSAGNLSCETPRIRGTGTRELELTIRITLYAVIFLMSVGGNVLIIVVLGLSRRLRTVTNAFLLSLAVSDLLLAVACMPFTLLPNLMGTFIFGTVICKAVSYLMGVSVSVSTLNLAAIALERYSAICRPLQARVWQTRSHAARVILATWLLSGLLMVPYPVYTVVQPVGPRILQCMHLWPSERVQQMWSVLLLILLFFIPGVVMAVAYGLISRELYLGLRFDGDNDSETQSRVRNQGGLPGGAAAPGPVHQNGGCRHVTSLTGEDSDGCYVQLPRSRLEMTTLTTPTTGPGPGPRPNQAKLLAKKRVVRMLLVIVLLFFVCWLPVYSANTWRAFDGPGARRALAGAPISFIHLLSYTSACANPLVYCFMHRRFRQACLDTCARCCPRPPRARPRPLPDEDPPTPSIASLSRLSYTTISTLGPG
# experiment: CCKB receptor radioligand binding assay in mouse cortical membranes
# measurement_conditions: [125I]-CCK8(S) 200 pM, 150 min at 21±3°, read-out: CCKB pKi (converted)
readout_label: Ki (nM)
Write the answer as a number in nM, unit excluded.

# example entries with known answers
O=C(O)c1cccc(NC(=O)c2nc(-c3ccc4ccccc4c3)[nH]c2CCC23CC4CC(CC(C4)C2)C3)c1    501
Cc1ccccc1-c1nc(C(=O)N2CCC(C(=O)O)CC2)c(CCC23CC4CC(CC(C4)C2)C3)[nH]1 (racemic)    5370
CCC(CC)c1nc(C(=O)Nc2cccc(C(=O)O)c2)c(CCC23CC4CC(CC(C4)C2)C3)[nH]1    45.7

Query (molecule): `Cc1ccc(NC(=O)c2c(CCC34CC5CC(CC(C5)C3)C4)nc(-c3ccccc3C)n2C)cc1C(=O)O` ; field requested: Ki
1660

Query (molecule): `Cc1ccccc1-c1nc(C(=O)N2CCC[C@H]2C(=O)O)c(CCC23CC4CC(CC(C4)C2)C3)[nH]1` ; field requested: Ki
2510

Query (molecule): `O=C(O)c1cc(NC(=O)c2[nH]c(-c3ccc4ccccc4c3)nc2CC2CCCCCC2)cc(C(=O)O)c1` ; field requested: Ki
251

Query (molecule): `O=C(O)c1cccc(NC(=O)c2nc(-c3ccccc3)[nH]c2CC2CCCCCC2)c1` ; field requested: Ki
1480
